Molecular target: T1, serum purified human Complement Factor D (human, UniProt P00746 26-253)
T1 construct: Serum purified protein flowed over the captured antibodies; also called CFD; human CFD
T1 sequence (P00746 26-253): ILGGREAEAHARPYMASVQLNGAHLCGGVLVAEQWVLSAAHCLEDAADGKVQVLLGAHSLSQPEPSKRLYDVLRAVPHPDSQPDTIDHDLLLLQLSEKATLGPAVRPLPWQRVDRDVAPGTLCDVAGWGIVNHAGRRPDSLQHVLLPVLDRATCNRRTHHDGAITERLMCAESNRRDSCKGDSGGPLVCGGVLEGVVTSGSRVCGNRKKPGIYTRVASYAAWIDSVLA
Assay: SPR Biacore, antibody on protein A chip, single cycle kinetics, 25 C;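 further: antibodies captured to roughly 70 RU on the protein A surface in HBS-EP+ running buffer, with kinetic constants derived by BIAevaluation fitting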
QUANTITY KIND: Kd (pM)
Kindly provide the numeric value in pM only, without the unit symbol.

INPUT: Kd lookup needed for 31S54V59D / 54R101V (antibody, V domains shown, KCD119 TAF variant) VH: EVQLVESGGGLVQPGGSLRLSCAASGYTFTSYYMNWVRQAPGKGLEWIGDINPVTGDTDYNADFKRRFTFSLDTSKSTAYLQMNSLRAEDTAVYYCTREGPSFAYWGQGTLVTVSS VL: DIQLTQSPSSLSASVGDRVTITCRSSQTIVHSNGDTYLEWYQQKPGKAPNLLIRKVSNRFSGVPSRFSGSGSGTDFTLTISSLQPEDFATYYCFQGSHVPVTFGQGTKVEIKR , thanks.
OUTPUT: 3.94
